procedure_summary: xn = mol fraction of the nth substance listed, in the solute-free solvent
protocol_conditions: 288.15 K; x2 = 0.2307
observable: solubility (g/100 g solution)

Known results for compounds:
compound: O=[N+]([O-])c1cc[nH]n1 + CCCO + O
solubility (g/100 g solution): 1.63

compound: COC(=O)C1=C(C)NC(C)=C(C(=O)OCC(C)C)C1c1ccccc1[N+](=O)[O-] (stereo not given) + CCCO + O
solubility (g/100 g solution): 2.52

compound: CS(=O)(=O)c1ccc(C(O)C(CF)NC(=O)C(Cl)Cl)cc1 (stereo not given) + CC(C)O + O
solubility (g/100 g solution): 0.422

(I) CC(=O)Nc1ccc(OC(=O)c2ccccc2OC(C)=O)cc1 + CC(C)O + O
(II) O=c1[nH]cc(F)c(=O)[nH]1 + CCCO + C1CCOC1
Smaller solubility (g/100 g solution) value? Options are I and II Return value: the label identifying the chosen record.
I

====

procedure_summary: xn = mol fraction of the nth substance listed, in the solute-free solvent
protocol_conditions: 328.15 K; x2 = 0.5
observable: solubility (g/100 g solution)

(P) CCCCN1CCCCC1C(=O)Nc1c(C)cccc1C.Cl.O (stereo unspecified) + CO + O
(Q) CCCCN1CCCCC1C(=O)Nc1c(C)cccc1C.Cl.O (stereo unspecified) + CCO + O
Smaller solubility (g/100 g solution) value? Options are P and Q Return value: the label identifying the chosen record.
Q
(Q: 19.4, P: 28.9)

====

procedure_summary: xn = mol fraction of the nth substance listed, in the solute-free solvent
protocol_conditions: 293.15 K; x2 = 0.3
observable: solubility (g/100 g solution)

Known results for compounds:
compound: CCCCN1CCCCC1C(=O)Nc1c(C)cccc1C.Cl.O (stereo unspecified) + CCO + O
solubility (g/100 g solution): 2.9

compound: O=c1ccc2ccccc2o1 + CO + O
solubility (g/100 g solution): 1.6

compound: O=c1ccc2ccccc2o1 + CC(C)=O + O
solubility (g/100 g solution): 22.3

(A) CCCCN1CCCCC1C(=O)Nc1c(C)cccc1C.Cl.O (stereo unspecified) + CO + O
(B) CCOC(=O)C1=CC2(CC)CCCN3CCc4c(n1c1ccccc41)C32 (stereo unspecified) + CCO + O
(C) CC1(C)SC2C(NC(=O)C(NC(=O)N3CCNC3=O)c3ccccc3)C(=O)N2C1C(=O)O (stereo unspecified) + CO + CC(C)O
Endpoint returns the given compounds ordered by ascending solubility (g/100 g solution). // format: requested-order list of labels
B, C, A
(B: 0.0768, C: 0.229, A: 3.57)

====

procedure_summary: xn = mol fraction of the nth substance listed, in the solute-free solvent
protocol_conditions: 293.15 K; x2 = 0.8
observable: solubility (g/100 g solution)

compound: CCCCN1CCCCC1C(=O)Nc1c(C)cccc1C.Cl.O (stereo not given) + CCO + O
solubility (g/100 g solution): 3.84
--
compound: CC1(C)SC2C(NC(=O)C(NC(=O)N3CCNC3=O)c3ccccc3)C(=O)N2C1C(=O)O (stereo not given) + CCO + CC(C)O
solubility (g/100 g solution): 0.623
--
compound: O=c1ccc2ccccc2o1 + CC(C)=O + O
solubility (g/100 g solution): 47.7
--
compound: CCOC(=O)C1=CC2(CC)CCCN3CCc4c(n1c1ccccc41)C32 (stereo not given) + CCO + O
solubility (g/100 g solution): 0.612
--
compound: O=c1ccc2ccccc2o1 + CO + O
solubility (g/100 g solution): 15.7

(I) O=C(CC(=O)c1ccccc1)c1ccccc1 + CC(C)O + O
(II) CC1(C)SC2C(NC(=O)C(NC(=O)N3CCNC3=O)c3ccccc3)C(=O)N2C1C(=O)O (stereo not given) + CO + CC(C)O
Which is greater in solubility (g/100 g solution), the first item I or the second item II ? Return value: the label identifying the chosen record.
I
(I: 2.1, II: 0.43)

(I) O=C(CC(=O)c1ccccc1)c1ccccc1 + CO + O
(II) CCCCN1CCCCC1C(=O)Nc1c(C)cccc1C.Cl.O (stereo not given) + CO + O
(III) O=C(CC(=O)c1ccccc1)c1ccccc1 + CCO + O
Ordering criterion: solubility (g/100 g solution); begin with the maximum. // format: requested-order list of labels
II, III, I

====

procedure_summary: xn = mol fraction of the nth substance listed, in the solute-free solvent
protocol_conditions: 288.15 K; x2 = 0.5454
observable: solubility (g/100 g solution)

Known results for compounds:
compound: COC(=O)C1=C(C)NC(C)=C(C(=O)OCC(C)C)C1c1ccccc1[N+](=O)[O-] (stereo not given) + CC(C)O + O
solubility (g/100 g solution): 4.5
--
compound: O=[N+]([O-])c1cc[nH]n1 + CCCO + O
solubility (g/100 g solution): 2.85

(I) CC(=O)Nc1ccc(OC(=O)c2ccccc2OC(C)=O)cc1 + CC(C)O + O
(II) COC(=O)C1=C(C)NC(C)=C(C(=O)OCC(C)C)C1c1ccccc1[N+](=O)[O-] (stereo not given) + CCCO + O
(III) CS(=O)(=O)c1ccc(C(O)C(CF)NC(=O)C(Cl)Cl)cc1 (stereo not given) + CC(C)O + O
Endpoint returns the given compounds ordered by ascending solubility (g/100 g solution). // format: requested-order list of labels
I, III, II
(I: 0.125, III: 0.536, II: 3.68)

====

procedure_summary: xn = mol fraction of the nth substance listed, in the solute-free solvent
protocol_conditions: 313.15 K; x2 = 0.5454
observable: solubility (g/100 g solution)

(A) CS(=O)(=O)c1ccc(C(O)C(CF)NC(=O)C(Cl)Cl)cc1 (stereo not given) + CC(C)O + O
(B) COC(=O)C1=C(C)NC(C)=C(C(=O)OCC(C)C)C1c1ccccc1[N+](=O)[O-] (stereo not given) + CCCO + O
Which is greater in solubility (g/100 g solution), the first item A or the second item B ? Return value: the label identifying the chosen record.
B
(B: 8.39, A: 1.89)

(I) COC(=O)C1=C(C)NC(C)=C(C(=O)OCC(C)C)C1c1ccccc1[N+](=O)[O-] (stereo not given) + CC(C)O + O
(II) CC(=O)Nc1ccc(OC(=O)c2ccccc2OC(C)=O)cc1 + CC(C)O + O
Smaller solubility (g/100 g solution) value? Options are I and II Return value: the label identifying the chosen record.
II

====

procedure_summary: xn = mol fraction of the nth substance listed, in the solute-free solvent
protocol_conditions: 303.15 K; x2 = 0.5
observable: solubility (g/100 g solution)

compound: CC1(C)SC2C(NC(=O)C(NC(=O)N3CCNC3=O)c3ccccc3)C(=O)N2C1C(=O)O (stereo unspecified) + CCO + CC(C)O
observed_measurement: 0.399
--
compound: O=c1ccc2ccccc2o1 + CO + O
observed_measurement: 18.6
--
compound: CCOC(=O)C1=CC2(CC)CCCN3CCc4c(n1c1ccccc41)C32 (stereo unspecified) + CCO + O
observed_measurement: 0.468
--
compound: O=c1ccc2ccccc2o1 + CC(C)=O + O
observed_measurement: 53.9

(A) CCCCN1CCCCC1C(=O)Nc1c(C)cccc1C.Cl.O (stereo unspecified) + CO + O
(B) CCCCN1CCCCC1C(=O)Nc1c(C)cccc1C.Cl.O (stereo unspecified) + CCO + O
Smaller solubility (g/100 g solution) value? Options are A and B Return value: the label identifying the chosen record.
B

====

procedure_summary: xn = mol fraction of the nth substance listed, in the solute-free solvent
protocol_conditions: 298.15 K; x2 = 0.8
observable: solubility (g/100 g solution)

Known results for molecules:
molecule: O=c1ccc2ccccc2o1 + CO + O
observed_measurement: 22.1

molecule: O=c1ccc2ccccc2o1 + CC(C)=O + O
observed_measurement: 53.6

(1) CCCCN1CCCCC1C(=O)Nc1c(C)cccc1C.Cl.O (stereo not given) + CCO + O
(2) CCCCN1CCCCC1C(=O)Nc1c(C)cccc1C.Cl.O (stereo not given) + CO + O
(3) O=C(CC(=O)c1ccccc1)c1ccccc1 + CO + O
Ordering criterion: solubility (g/100 g solution); begin with the maximum. // format: requested-order list of labels
2, 1, 3
(2: 9.32, 1: 4.16, 3: 1.35)

====

procedure_summary: xn = mol fraction of the nth substance listed, in the solute-free solvent
protocol_conditions: 293.15 K; x2 = 0.3698
observable: solubility (g/100 g solution)

compound: O=[N+]([O-])c1cc[nH]n1 + CCO + O
solubility (g/100 g solution): 1.45

(a) CS(=O)(=O)c1ccc(C(O)C(CF)NC(=O)C(Cl)Cl)cc1 (centres undefined) + CCO + O
(b) CC(=O)Nc1ccc(OC(=O)c2ccccc2OC(C)=O)cc1 + CCO + O
(c) COC(=O)C1=C(C)NC(C)=C(C(=O)OCC(C)C)C1c1ccccc1[N+](=O)[O-] (centres undefined) + CCO + O
Ordering criterion: solubility (g/100 g solution); begin with the maximum. // format: requested-order list of labels
c, a, b
